Target desc: T1, C-reactive protein (CRP) (UniProt P02741 P02741:19-224)
T1 sequence: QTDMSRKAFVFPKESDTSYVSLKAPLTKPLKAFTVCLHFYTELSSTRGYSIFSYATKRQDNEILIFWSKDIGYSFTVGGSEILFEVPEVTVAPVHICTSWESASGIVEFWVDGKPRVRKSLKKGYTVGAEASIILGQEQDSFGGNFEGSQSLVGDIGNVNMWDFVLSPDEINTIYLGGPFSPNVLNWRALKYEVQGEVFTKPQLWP
Assay summary: square wave voltammetry on gold SPE, Hill-Langmuir fit of 48-hour sensor re-use data; BSA-doped PBS with Mg, room temperature not stated
Condition details: tags: abcam ab167710, HEK 293 expressed, >95% purity; chain copies: 5 (pentamer, stated); label: 3' methylene blue
Observable: Kd (nM)

{"columns": ["Binder", "Observable", "Unit tag", "Result"],
 "data": [
  ["CRP-targeting aptamer (ssDNA, 5' thiol modifier (C6-S-S), 3' methylene blue via C7 spacer) DNA: GGCAGGAAGACAAACACGATGGGGGGGTATGATTTGATGTGGTTGTTGCATGATCGTGGTCTGTGGTGCTGT", "Kd", "nM", 55.4]
]}
